// reported viability, T/C for each item listed
System: 361931-004-R-J1-PDC multicell spheroid viability
Experiment Summary: Anticancer human tumor 361931-004-R-J1-PDC patient-derived colon adenocarcinoma cell line growth inhibition [PI3K]
Study Conditions: second compound 1 µM; first compound 0.1 µM; stronger effect = lower value
Assay Readout: viability, T/C (%)

>>> endpoint_result("CC(=O)c1c(C)c2cnc(Nc3ccc(N4CCNCC4)cn3)nc2n(C2CCCC2)c1=O + COc1c(OCCCN2CCOCC2)ccc2c3n(c(=NC(=O)c4cnc(N)nc4)nc12)CCN3")
15.2
>>> endpoint_result("Cn1ncc(Cl)c1-c1cc(C(=O)NC(CN)Cc2cccc(F)c2)sc1Cl (stereo not drawn) + CC(Nc1ncnc2nc[nH]c12)c1cc2cccc(Cl)c2c(=O)n1-c1ccccc1")
101
>>> endpoint_result("CC1(C)CCC(CN2CCN(c3ccc(C(=O)NS(=O)(=O)c4ccc(NCC5CCOCC5)c([N+](=O)[O-])c4)c(Oc4cnc5[nH]ccc5c4)c3)CC2)=C(c2ccc(Cl)cc2)C1 + Cc1nc(NC(=O)N2CCCC2C(N)=O)sc1-c1ccnc(C(C)(C)C(F)(F)F)c1")
102

* * *

// reported viability, T/C for each item listed
Test system: 361931-004-R-J1-PDC multicell spheroid viability
Experiment Summary: Anticancer human tumor 361931-004-R-J1-PDC cell line growth inhibition [PI3K];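 further: spheroids exposed to agents for seven days before readout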
Study Conditions: second compound 0.0316 µM; first compound 0.0949 µM; stronger effect = lower value
Assay Readout: viability, T/C (%)

>>> endpoint_result("Cn1cnc2c(F)c(Nc3ccc(Br)cc3Cl)c(C(=O)NOCCO)cc21 + COc1c(OCCCN2CCOCC2)ccc2c3n(c(=NC(=O)c4cnc(N)nc4)nc12)CCN3")
81
>>> endpoint_result("Cn1cnc2c(F)c(Nc3ccc(Br)cc3Cl)c(C(=O)NOCCO)cc21 + CC(Nc1ccc2c(c1)OCCn1cc(N3C(=O)OCC3C(F)F)nc1-2)C(N)=O")
83.8
>>> endpoint_result("Cn1cnc2c(F)c(Nc3ccc(Br)cc3Cl)c(C(=O)NOCCO)cc21 + CC(Nc1ncnc2nc[nH]c12)c1cc2cccc(Cl)c2c(=O)n1-c1ccccc1")
94
>>> endpoint_result("Cn1cnc2c(F)c(Nc3ccc(Br)cc3Cl)c(C(=O)NOCCO)cc21 + Cc1nc(NC(=O)N2CCCC2C(N)=O)sc1-c1ccnc(C(C)(C)C(F)(F)F)c1")
82.2

* * *

Tested on: 361931-004-R-J1-PDC multicell spheroid viability
Experiment Summary: Anticancer human tumor 361931-004-R-J1-PDC cell line growth inhibition [PI3K];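 further: spheroids exposed to agents for seven days before readout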
Study Conditions: compound 3.16 µM; stronger effect = lower value
Assay Readout: viability, T/C

>>> endpoint_result("Cn1ncc(Cl)c1-c1cc(C(=O)NC(CN)Cc2cccc(F)c2)sc1Cl (stereo unspecified)")
"46.3% [middle of 4 runs]"
>>> endpoint_result("C[C@@H](NC(=O)c1ncnc(N)c1Cl)c1ncc(C(=O)Nc2cc(C(F)(F)F)c(Cl)cn2)s1")
"99.3% [middle of 4 runs]"
>>> endpoint_result("Cn1nccc1Nc1nccc(-c2ccn(C(CO)c3ccc(Cl)c(F)c3)c(=O)c2)n1 (stereo unspecified)")
"78.3% [middle of 4 runs]"
>>> endpoint_result("CC(Cn1ccc(-c2ccc(C#N)c(Cl)c2)n1)NC(=O)c1cc(C(C)O)[nH]n1 (stereo unspecified)")
"102% [middle of 4 runs]"
>>> endpoint_result("CNC(=O)c1ccc(N2C(=S)N(c3ccc(C#N)c(C(F)(F)F)c3)C(=O)C2(C)C)cc1F")
"98.6% [middle of 4 runs]"
>>> endpoint_result("Cc1nc(NC(=O)N2CCCC2C(N)=O)sc1-c1ccnc(C(C)(C)C(F)(F)F)c1 (stereo unspecified)")
"87.2% [middle of 8 runs]"
>>> endpoint_result("CC(C)NCC(C(=O)N1CCN(c2ncnc3c2C(C)CC3O)CC1)c1ccc(Cl)cc1 (stereo unspecified)")
"48.7% [middle of 4 runs]"
>>> endpoint_result("C=CC(=O)N1CCN(c2nc(=O)n(-c3c(C)ccnc3C(C)C)c3nc(-c4c(O)cccc4F)c(F)cc23)C(C)C1 (stereo unspecified)")
"100% [middle of 4 runs]"
>>> endpoint_result("C#Cc1c(F)ccc2cc(O)cc(-c3ncc4c(N5CC6CCC(C5)N6)nc(OCC56CCCN5CC(F)C6)nc4c3F)c12 (stereo unspecified)")
"96.7% [middle of 4 runs]"
>>> endpoint_result("CC(Nc1ncnc2nc[nH]c12)c1cc2cccc(Cl)c2c(=O)n1-c1ccccc1 (stereo unspecified)")
"103% [middle of 8 runs]"
>>> endpoint_result("CCCS(=O)(=O)Nc1ccc(F)c(C(=O)c2c[nH]c3ncc(-c4ccc(Cl)cc4)cc23)c1F")
"82% [middle of 4 runs]"

* * *

Test system: 361931-004-R-J1-PDC multicell spheroid viability
Experiment Summary: Anticancer human tumor 361931-004-R-J1-PDC cell line growth inhibition [PI3K];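 further: spheroids exposed to agents for seven days before readout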
Study Conditions: second compound 0.1 µM; first compound 0.949 µM; stronger effect = lower value
Description: Combinatorial screen of targeted agents with the PI3K inhibitors inavolisib, alpelisib, duvelisib, and copanlisib in multi-cell type tumor spheroids A high-throughput screen of multi-cell type tumor spheroids was designed to identify active combinations of targeted small molecules and PI3K pathway inhibitors. […] Compounds. […] If the clinical Cmax for an agent had not been determined, the highest concentration tested was 10 microM. […]
Assay Readout: viability, T/C (%)

>>> endpoint_result("Cn1cnc2c(F)c(Nc3ccc(Br)cc3Cl)c(C(=O)NOCCO)cc21 + CC(Nc1ncnc2nc[nH]c12)c1cc2cccc(Cl)c2c(=O)n1-c1ccccc1")
87.4
>>> endpoint_result("Cn1cnc2c(F)c(Nc3ccc(Br)cc3Cl)c(C(=O)NOCCO)cc21 + COc1c(OCCCN2CCOCC2)ccc2c3n(c(=NC(=O)c4cnc(N)nc4)nc12)CCN3")
23.9
>>> endpoint_result("Cn1cnc2c(F)c(Nc3ccc(Br)cc3Cl)c(C(=O)NOCCO)cc21 + CC(Nc1ccc2c(c1)OCCn1cc(N3C(=O)OCC3C(F)F)nc1-2)C(N)=O")
53.8
>>> endpoint_result("Cn1cnc2c(F)c(Nc3ccc(Br)cc3Cl)c(C(=O)NOCCO)cc21 + Cc1nc(NC(=O)N2CCCC2C(N)=O)sc1-c1ccnc(C(C)(C)C(F)(F)F)c1")
70.4

* * *

Test system: 361931-004-R-J1-PDC multicell spheroid viability
Experiment Summary: Anticancer human tumor 361931-004-R-J1-PDC cell line growth inhibition [PI3K];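 further: spheroids exposed to agents for seven days before readout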
Study Conditions: second compound 0.01 µM; first compound 1 µM; stronger effect = lower value
Assay Readout: viability, T/C (%)

>>> endpoint_result("C[C@@H](NC(=O)c1ncnc(N)c1Cl)c1ncc(C(=O)Nc2cc(C(F)(F)F)c(Cl)cn2)s1 + CC(Nc1ccc2c(c1)OCCn1cc(N3C(=O)OCC3C(F)F)nc1-2)C(N)=O")
89.6
>>> endpoint_result("C#Cc1c(F)ccc2cc(O)cc(-c3ncc4c(N5CC6CCC(C5)N6)nc(OCC56CCCN5CC(F)C6)nc4c3F)c12 (stereo not given) + CC(Nc1ccc2c(c1)OCCn1cc(N3C(=O)OCC3C(F)F)nc1-2)C(N)=O")
92.1
>>> endpoint_result("Cn1ncc(Cl)c1-c1cc(C(=O)NC(CN)Cc2cccc(F)c2)sc1Cl (stereo not given) + COc1c(OCCCN2CCOCC2)ccc2c3n(c(=NC(=O)c4cnc(N)nc4)nc12)CCN3")
66.7
>>> endpoint_result("C=CC(=O)N1CCN(c2nc(=O)n(-c3c(C)ccnc3C(C)C)c3nc(-c4c(O)cccc4F)c(F)cc23)C(C)C1 (stereo not given) + COc1c(OCCCN2CCOCC2)ccc2c3n(c(=NC(=O)c4cnc(N)nc4)nc12)CCN3")
94.4
>>> endpoint_result("Cn1nccc1Nc1nccc(-c2ccn(C(CO)c3ccc(Cl)c(F)c3)c(=O)c2)n1 (stereo not given) + COc1c(OCCCN2CCOCC2)ccc2c3n(c(=NC(=O)c4cnc(N)nc4)nc12)CCN3")
80.8

* * *

// reported viability, T/C for each item listed
Tested on: 361931-004-R-J1-PDC multicell spheroid viability
Experiment Summary: Anticancer human tumor 361931-004-R-J1-PDC cell line growth inhibition [PI3K];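 further: spheroids exposed to agents for seven days before readout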
Study Conditions: second compound 0.01 µM; first compound 0.316 µM; stronger effect = lower value
Assay Readout: viability, T/C

>>> endpoint_result("Cn1ncc(Cl)c1-c1cc(C(=O)NC(CN)Cc2cccc(F)c2)sc1Cl (centres undefined) + CC(Nc1ccc2c(c1)OCCn1cc(N3C(=O)OCC3C(F)F)nc1-2)C(N)=O")
"68.7%"
>>> endpoint_result("C#Cc1c(F)ccc2cc(O)cc(-c3ncc4c(N5CC6CCC(C5)N6)nc(OCC56CCCN5CC(F)C6)nc4c3F)c12 (centres undefined) + COc1c(OCCCN2CCOCC2)ccc2c3n(c(=NC(=O)c4cnc(N)nc4)nc12)CCN3")
"99.1%"
>>> endpoint_result("CC(C)NCC(C(=O)N1CCN(c2ncnc3c2C(C)CC3O)CC1)c1ccc(Cl)cc1 (centres undefined) + COc1c(OCCCN2CCOCC2)ccc2c3n(c(=NC(=O)c4cnc(N)nc4)nc12)CCN3")
"90.9%"
>>> endpoint_result("CNC(=O)c1ccc(N2C(=S)N(c3ccc(C#N)c(C(F)(F)F)c3)C(=O)C2(C)C)cc1F + CC(Nc1ccc2c(c1)OCCn1cc(N3C(=O)OCC3C(F)F)nc1-2)C(N)=O")
"85.2%"
>>> endpoint_result("C[C@@H](NC(=O)c1ncnc(N)c1Cl)c1ncc(C(=O)Nc2cc(C(F)(F)F)c(Cl)cn2)s1 + COc1c(OCCCN2CCOCC2)ccc2c3n(c(=NC(=O)c4cnc(N)nc4)nc12)CCN3")
"105%"
>>> endpoint_result("CC1(C)CCC(Nc2ncc(C(F)(F)F)c(-c3c[nH]c4c(P(C)(C)=O)c(C#N)ccc34)n2)CN1 (centres undefined) + COc1c(OCCCN2CCOCC2)ccc2c3n(c(=NC(=O)c4cnc(N)nc4)nc12)CCN3")
"82%"
>>> endpoint_result("C[C@@H](NC(=O)c1ncnc(N)c1Cl)c1ncc(C(=O)Nc2cc(C(F)(F)F)c(Cl)cn2)s1 + CC(Nc1ccc2c(c1)OCCn1cc(N3C(=O)OCC3C(F)F)nc1-2)C(N)=O")
"98%"
>>> endpoint_result("CC1(C)CCC(CN2CCN(c3ccc(C(=O)NS(=O)(=O)c4ccc(NCC5CCOCC5)c([N+](=O)[O-])c4)c(Oc4cnc5[nH]ccc5c4)c3)CC2)=C(c2ccc(Cl)cc2)C1 + CC(Nc1ccc2c(c1)OCCn1cc(N3C(=O)OCC3C(F)F)nc1-2)C(N)=O")
"91.5%"
>>> endpoint_result("C#Cc1c(F)ccc2cc(O)cc(-c3ncc4c(N5CC6CCC(C5)N6)nc(OCC56CCCN5CC(F)C6)nc4c3F)c12 (centres undefined) + CC(Nc1ccc2c(c1)OCCn1cc(N3C(=O)OCC3C(F)F)nc1-2)C(N)=O")
"81%"
>>> endpoint_result("CCN1CCN(Cc2ccc(Nc3ncc(F)c(-c4cc(F)c5nc(C)n(C(C)C)c5c4)n3)nc2)CC1 + COc1c(OCCCN2CCOCC2)ccc2c3n(c(=NC(=O)c4cnc(N)nc4)nc12)CCN3")
"77.2%"
>>> endpoint_result("CNC(=O)c1ccc(N2C(=S)N(c3ccc(C#N)c(C(F)(F)F)c3)C(=O)C2(C)C)cc1F + COc1c(OCCCN2CCOCC2)ccc2c3n(c(=NC(=O)c4cnc(N)nc4)nc12)CCN3")
"98.8%"
>>> endpoint_result("Cn1ncc(Cl)c1-c1cc(C(=O)NC(CN)Cc2cccc(F)c2)sc1Cl (centres undefined) + COc1c(OCCCN2CCOCC2)ccc2c3n(c(=NC(=O)c4cnc(N)nc4)nc12)CCN3")
"94.8%"
>>> endpoint_result("CCCS(=O)(=O)Nc1ccc(F)c(C(=O)c2c[nH]c3ncc(-c4ccc(Cl)cc4)cc23)c1F + COc1c(OCCCN2CCOCC2)ccc2c3n(c(=NC(=O)c4cnc(N)nc4)nc12)CCN3")
"94%"
>>> endpoint_result("Cn1nccc1Nc1nccc(-c2ccn(C(CO)c3ccc(Cl)c(F)c3)c(=O)c2)n1 (centres undefined) + CC(Nc1ccc2c(c1)OCCn1cc(N3C(=O)OCC3C(F)F)nc1-2)C(N)=O")
"93.9%"

src = PubChem BioAssay AID1963979
